experimental target: SfurOBP11 (Sogatella furcifera)
Sequence (V5T6E3 entry or part of it): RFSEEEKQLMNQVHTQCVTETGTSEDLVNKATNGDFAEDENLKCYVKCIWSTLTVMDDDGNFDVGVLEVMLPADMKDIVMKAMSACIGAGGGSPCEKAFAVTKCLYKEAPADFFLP
protocol notes: biochemical
Type: binding
condition: ligand concentration 10, replicate 2
Please assign a class to every record based on measured Fluorescence intensity, fluorescence competitive binding assay, OBP11, with ranges low band: < 20000; middle band: ≥ 20000 and < 30000; high band: ≥ 30000

1) CCCCCCCCCCCCC=O
middle band
2) CCCCCC(C)=O
middle band
3) CCCCCCCCCCCCCCCCCCC
high band
4) O=C(c1ccccc1)c1ccccc1
low band
5) CCCCCCCC=O
middle band

Asked: Hi, small favor: classify CCCCCCCCCCCCO by its Fluorescence intensity, fluorescence competitive binding assay, OBP11 when you get a moment.
Given back: middle band

Asked: Hi, small favor: classify CC(C)COC(=O)CCCCC(=O)OCC(C)C [DA(diisobutyl adipate)] by its Fluorescence intensity, fluorescence competitive binding assay, OBP11 when you get a moment.
Given back: middle band

Asked: Hi, small favor: classify Cc1cc(C(C)(C)C)c(O)c(C(C)(C)C)c1 by its Fluorescence intensity, fluorescence competitive binding assay, OBP11 when you get a moment.
Given back: low band

Asked: Hi, small favor: classify CC(=O)/C=C/C1=C(C)CCCC1(C)C by its Fluorescence intensity, fluorescence competitive binding assay, OBP11 when you get a moment.
Given back: middle band

Asked: Hi, small favor: classify C=CC(C)(O)CCC=C(C)C (stereo not shown) by its Fluorescence intensity, fluorescence competitive binding assay, OBP11 when you get a moment.
Given back: high band

Asked: Hi, small favor: classify CC(=O)c1ccccc1 by its Fluorescence intensity, fluorescence competitive binding assay, OBP11 when you get a moment.
Given back: middle band

Asked: Hi, small favor: classify OC1CCCCC1 by its Fluorescence intensity, fluorescence competitive binding assay, OBP11 when you get a moment.
Given back: middle band

Asked: Hi, small favor: classify C/C(=C\CO)CCC[C@H](C)CCC[C@H](C)CCCC(C)C by its Fluorescence intensity, fluorescence competitive binding assay, OBP11 when you get a moment.
Given back: low band

Asked: Hi, small favor: classify CC/C=C\CCO [(Z)-3-hexenol] by its Fluorescence intensity, fluorescence competitive binding assay, OBP11 when you get a moment.
Given back: middle band

Asked: Hi, small favor: classify CCC/C=C/CO [(E)-2-hexenol] by its Fluorescence intensity, fluorescence competitive binding assay, OBP11 when you get a moment.
Given back: middle band

Asked: Hi, small favor: classify CCCCCCC=CCO by its Fluorescence intensity, fluorescence competitive binding assay, OBP11 when you get a moment.
Given back: high band

###

experimental target: SfurOBP2 (Sogatella furcifera)
protocol notes: biochemical
Assay type: binding
condition: ligand concentration 18 (unit not given), replicate column 3 of 3
We begin with a simple list: items and their reported Fluorescence competitive binding assay, OBP2 (raw fluorescence reading).
// return just the number, without any unit appended

Observe how each entry below is paired with its result.
1. CCCCCCCCCCCCCCCC
13250
2. CCCCCC=O
15875
3. CCCCCCC=CCO
15979

So, c1ccc2ccccc2c1 ? Its Fluorescence competitive binding assay, OBP2 (raw fluorescence reading) was 18960

So, C/C(=C\CO)CCC[C@H](C)CCC[C@H](C)CCCC(C)C ? Its Fluorescence competitive binding assay, OBP2 (raw fluorescence reading) was 19071

So, Cc1ccc(C(C)C)cc1 ? Its Fluorescence competitive binding assay, OBP2 (raw fluorescence reading) was 13475

So, OC1CCCCC1 ? Its Fluorescence competitive binding assay, OBP2 (raw fluorescence reading) was 16085

###

We begin with a simple list: items and their reported Fluorescence competitive binding assay, OBP2 (raw fluorescence reading).
experimental target: SfurOBP2 (Sogatella furcifera)
protocol notes: biochemical
Assay type: binding
condition: ligand concentration 10 (unit not given), replicate column 2 of 3
// return just the number, without any unit appended

So, CCCCCCCC=O ? Its Fluorescence competitive binding assay, OBP2 (raw fluorescence reading) was 18400

So, c1ccc2ccccc2c1 ? Its Fluorescence competitive binding assay, OBP2 (raw fluorescence reading) was 20292

So, CC(C)COC(=O)CCCCC(=O)OCC(C)C [DA(diisobutyl adipate)] ? Its Fluorescence competitive binding assay, OBP2 (raw fluorescence reading) was 15081

###

experimental target: SfurOBP11 (Sogatella furcifera)
protocol notes: biochemical
Type: binding
condition: ligand concentration 4, replicate 1
Output yes for records whose Fluorescence intensity, fluorescence competitive binding assay, OBP11 is lower than 30000, no for records at or above 30000.

Consider the worked cases shown below.
1) CCCCCCCCCCCCCCCCCC
no
2) CCCCCCCCCCOCCCCCCCCCC
no

Could you now consider this next compound?
Asked: Determine whether this compound shows Fluorescence intensity, fluorescence competitive binding assay, OBP11 lower than 30000 (ties excluded): CCCCCCCCCCCCCCCC
Given back: yes

###

We begin with a simple list: items and their reported Fluorescence competitive binding assay, OBP2 (raw fluorescence reading).
experimental target: SfurOBP2 (Sogatella furcifera, UniProt V5T759)
Sequence (V5T759 entry or part of it): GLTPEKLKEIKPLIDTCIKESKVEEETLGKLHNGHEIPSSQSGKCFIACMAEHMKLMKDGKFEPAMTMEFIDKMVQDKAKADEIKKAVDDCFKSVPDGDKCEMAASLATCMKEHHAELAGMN
protocol notes: biochemical
Format: binding
condition: ligand concentration 12 (unit not given), replicate column 3 of 3
// return just the number, without any unit appended

So, CC/C=C\CCO [(Z)-3-hexenol] ? Its Fluorescence competitive binding assay, OBP2 (raw fluorescence reading) was 16305

So, O=Cc1ccccc1 ? Its Fluorescence competitive binding assay, OBP2 (raw fluorescence reading) was 13318

So, C=C/C(C)=C/C/C=C(\C)CCC=C(C)C ? Its Fluorescence competitive binding assay, OBP2 (raw fluorescence reading) was 19003

###

We begin with a simple list: items and their reported Fluorescence intensity, fluorescence competitive binding assay, OBP11.
experimental target: SfurOBP11 (Sogatella furcifera)
protocol notes: biochemical
Format: binding
condition: ligand concentration 2, replicate 3
// return just the number, without any unit appended

Observe how each entry below is paired with its result.
1) Cc1cc(C(C)(C)C)c(O)c(C(C)(C)C)c1
21527
2) CCCCCCCCCCC
32188
3) CCCCCCCCCCCCCCCC(=O)OC [MH(methyl hexadecanoate)]
28224
4) CCCCCCCCCCCCC=O
30699
5) O=Cc1ccccc1
26489
6) c1ccc2ccccc2c1
34898
7) C[C@@H]1CC[C@H]2C(C)(C)[C@H]3C[C@@]12CC[C@@]3(C)O
32191
8) CCCCCCCC
31569

So, CCCCCCCCCCOCCCCCCCCCC ? Its Fluorescence intensity, fluorescence competitive binding assay, OBP11 was 37407

So, CCCCCCC=CCO ? Its Fluorescence intensity, fluorescence competitive binding assay, OBP11 was 44360

So, CCCCCCCC=O ? Its Fluorescence intensity, fluorescence competitive binding assay, OBP11 was 29122

So, CCCCCCCCCCCCCCCCCCC ? Its Fluorescence intensity, fluorescence competitive binding assay, OBP11 was 36144

###

We begin with a simple list: items and their reported Fluorescence competitive binding assay, OBP2 (raw fluorescence reading).
experimental target: UniProt V5T759
protocol notes: biochemical
Assay type: binding
condition: ligand concentration 6 (unit not given), replicate column 3 of 3
// return just the number, without any unit appended

So, CCCCCCCCCCC ? Its Fluorescence competitive binding assay, OBP2 (raw fluorescence reading) was 13866

So, CCCCCCCCCCCCCCCCCCC ? Its Fluorescence competitive binding assay, OBP2 (raw fluorescence reading) was 22791

So, O=Cc1ccccc1 ? Its Fluorescence competitive binding assay, OBP2 (raw fluorescence reading) was 14868

So, C=CC(C)(O)CCC=C(C)C (stereo not drawn) ? Its Fluorescence competitive binding assay, OBP2 (raw fluorescence reading) was 21546

So, CCCCCCCCCCOCCCCCCCCCC ? Its Fluorescence competitive binding assay, OBP2 (raw fluorescence reading) was 34987

So, CC/C=C\CCO [(Z)-3-hexenol] ? Its Fluorescence competitive binding assay, OBP2 (raw fluorescence reading) was 17857

So, CCCCCCCCCCCCCCCC(=O)OC [MH(methyl hexadecanoate)] ? Its Fluorescence competitive binding assay, OBP2 (raw fluorescence reading) was 41844

So, CCCCCCCCCCCCCC ? Its Fluorescence competitive binding assay, OBP2 (raw fluorescence reading) was 19193

So, CCCCCCCC ? Its Fluorescence competitive binding assay, OBP2 (raw fluorescence reading) was 15566

So, C=C(C)C1CC=C(C)CC1 (single isomer, unassigned; (+)) [(+)-limonene] ? Its Fluorescence competitive binding assay, OBP2 (raw fluorescence reading) was 18376

So, CCC/C=C/CO [(E)-2-hexenol] ? Its Fluorescence competitive binding assay, OBP2 (raw fluorescence reading) was 16504

So, O=C(c1ccccc1)c1ccccc1 ? Its Fluorescence competitive binding assay, OBP2 (raw fluorescence reading) was 16073

###

experimental target: UniProt V5T759
protocol notes: biochemical
Assay type: binding
condition: ligand concentration 20 (unit not given), replicate column 3 of 3
measured endpoint: Fluorescence competitive binding assay, OBP2 (raw fluorescence reading)
// return just the number, without any unit appended

1. O=Cc1ccccc1 [benzaldehyde]
11918
2. CCCCCCCCC=O [nonanal]
17962
3. CCCCCCCC=O [octanal]
16214
4. C=CC(C)(O)CCC=C(C)C (stereo not shown) [linalool]
12873
5. CCCCCC=O [caproaldehyde]
14364
6. CCCCCC(C)=O [2-heptanone]
13571
7. CCC/C=C/CO [(E)-2-hexenol]
11057
8. C=C1CC/C=C(\C)CC[C@@H]2[C@@H]1CC2(C)C [β-caryophyllene]
20042
9. CCCCCCCCCCOCCCCCCCCCC [didecyl ether]
47381
10. CCCCCCCCCCCCO [lauryl alcohol]
13106

So, CC/C=C\CCO [(Z)-3-hexenol] ? Its Fluorescence competitive binding assay, OBP2 (raw fluorescence reading) was 12410

So, C=C(C)C1CC=C(C)CC1 (single isomer, unassigned; (+)) [(+)-limonene] ? Its Fluorescence competitive binding assay, OBP2 (raw fluorescence reading) was 12438

So, C/C(=C\CO)CCC[C@H](C)CCC[C@H](C)CCCC(C)C [plant alcohol] ? Its Fluorescence competitive binding assay, OBP2 (raw fluorescence reading) was 18461
